- target: MRGPRX2 (Homo sapiens, UniProt Q96LB1)
- assay-explanation: MRGPRX2 β-Arrestin Assay
- Assay type: cell-based
- Design: host or cells: PathHunter CHO-K1
- test-parameters: PathHunter CHO-K1 MRGPRX2 β-Arrestin cell line; agonist Cortistatin 14 0.25 μM
measured-property: IC50

Check out these entries, answers already filled in.
{"compound": "Fc1ccc(Oc2cnc3cc(C(C(F)F)N4CCCC(c5ccn[nH]5)C4)ncc3c2)c(F)c1 (centres unmarked)", "target": "MRGPRX2 (Homo sapiens, UniProt Q96LB1)", "IC50": "0.1 to 100 nM"}
{"compound": "Fc1ccc(Oc2cnc3cc(C(N4CCCC4c4ccccc4)C(F)(F)F)ncc3c2)c(F)c1 (centres unmarked)", "target": "MRGPRX2 (Homo sapiens, UniProt Q96LB1)", "IC50": "0.1 to 100 nM"}

Next up:
Q. Suppose we examine the compound Fc1ccc(Oc2cnc3cc(C(N4CCC(F)(F)CC4)C(F)(F)F)ncc3c2)c(F)c1 (centres unmarked) ; what IC50 value has been reported?
A. 0.1 to 100 nM

###

Listed next: entries and their corresponding pIC50.
- target: UniProtKB Q96LB1
- Sequence (Q96LB1 1-330): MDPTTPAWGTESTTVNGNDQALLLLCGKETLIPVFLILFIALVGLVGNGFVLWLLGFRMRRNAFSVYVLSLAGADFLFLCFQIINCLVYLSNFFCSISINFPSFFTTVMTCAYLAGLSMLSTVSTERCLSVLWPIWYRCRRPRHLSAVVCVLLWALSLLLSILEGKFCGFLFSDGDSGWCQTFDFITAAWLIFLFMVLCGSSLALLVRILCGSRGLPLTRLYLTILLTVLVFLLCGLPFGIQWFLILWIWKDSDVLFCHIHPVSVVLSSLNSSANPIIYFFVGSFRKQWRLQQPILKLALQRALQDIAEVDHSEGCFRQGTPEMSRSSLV
- assay-explanation: MRGPRX2 β-Arrestin Assay
- Assay type: cell-based
- Set-up: host or cells: PathHunter CHO-K1
- test-parameters: PathHunter CHO-K1 MRGPRX2 β-Arrestin cell line; agonist Cortistatin 14 0.25 μM
- Text: Example C: MRGPRX2 β-Arrestin Assay This assay measures compound inhibition of β-Arrestin recruitment, which is part of the G protein-independent pathway that results from the ligand-activated GPCR phosphorylation by specific GPCR kinases. […] The cells were maintained in culture medium from the Europhins DiscoverX Cell Culture Kit-107 which includes FBS, hygromycin B and G418. […] Plates were read on the PHERAstar microplate reader (BMG Labtech Cary, NC) measuring luminescence 0.1 to 1 s per well. […]
pIC50: −log10 of the molar value.

Check out these entries, answers already filled in.
{"molecule": "CC(c1cc2ncc(Oc3ccc(F)cc3F)cc2cn1)N1CCCC1c1ccccc1 (centres unmarked)", "target": "UniProtKB Q96LB1", "pIC50": "7.00 to 10.00"}
{"molecule": "O=c1ccc(C2CCCN2C(c2cc3ncc(Oc4ccc(F)cc4F)cc3cn2)C(F)(F)F)c[nH]1 (centres unmarked)", "target": "UniProtKB Q96LB1", "pIC50": "7.00 to 10.00"}
{"molecule": "COc1ccc(C2CCCN2C(c2cc3ncc(Oc4ccc(F)cc4F)cc3cn2)C(F)(F)F)cc1 (centres unmarked)", "target": "UniProtKB Q96LB1", "pIC50": "7.00 to 10.00"}
{"molecule": "O=c1ccc(C2CCCN(C(c3cc4ncc(Oc5ccc(F)cc5F)cc4cn3)C(F)(F)F)C2)cn1CC(F)(F)F (centres unmarked)", "target": "UniProtKB Q96LB1", "pIC50": "7.00 to 10.00"}
{"molecule": "O=c1ccc(C2CN(C(c3cc4ncc(Oc5ccc(F)cc5F)cc4cn3)C(F)(F)F)CCC2(F)F)c[nH]1 (centres unmarked)", "target": "UniProtKB Q96LB1", "pIC50": "7.00 to 10.00"}
{"molecule": "NC(=O)[C@@H]1CCCN1C(c1cc2ncc(Oc3ccc(F)cc3F)cc2cn1)C(F)(F)F (some centres unmarked)", "target": "UniProtKB Q96LB1", "pIC50": "7.00 to 10.00"}
{"molecule": "OC[C@@H]1CCCN1C(c1cc2ncc(Oc3ccc(F)cc3F)cc2cn1)C(F)(F)F (some centres unmarked)", "target": "UniProtKB Q96LB1", "pIC50": "7.00 to 10.00"}

Next up:
Q. Suppose we examine the molecule CC1(C)CN(C(c2cc3ncc(Oc4ccc(F)cc4F)cc3cn2)C(F)(F)F)CCO1 (centres unmarked) ; what pIC50 value has been reported?
A. 7.00 to 10.00

Data credit: patent US20250206734A1
